# targetUnderTest: human PD-L1 (human) (UniProt Q9NZQ7)
# Sequence (Q9NZQ7 19-290): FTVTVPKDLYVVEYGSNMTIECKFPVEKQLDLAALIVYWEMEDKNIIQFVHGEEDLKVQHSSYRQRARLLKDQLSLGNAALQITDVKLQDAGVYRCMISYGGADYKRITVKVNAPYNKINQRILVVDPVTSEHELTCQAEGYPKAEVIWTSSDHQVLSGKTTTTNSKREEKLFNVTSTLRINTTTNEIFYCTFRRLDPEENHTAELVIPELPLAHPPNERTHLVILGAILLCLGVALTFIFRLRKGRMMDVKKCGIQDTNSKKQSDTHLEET
# assayComment: flow cytometry, CHO/PD-L1 cells; MFI over CD80 WT IgV-Fc
metric: Fold change to WT CD80 (fold)

variant CD80 IgV-Fc (inert) H18V/A26P/E35D/M47L/V68M/A71G (Fc fusion) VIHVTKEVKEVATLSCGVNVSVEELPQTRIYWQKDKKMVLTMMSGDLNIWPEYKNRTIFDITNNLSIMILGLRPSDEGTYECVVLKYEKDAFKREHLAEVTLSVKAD : 318

A = variant CD80 IgV-Fc (inert) H18T/A26N/E35D/M47L/V68M/A71G (Fc fusion) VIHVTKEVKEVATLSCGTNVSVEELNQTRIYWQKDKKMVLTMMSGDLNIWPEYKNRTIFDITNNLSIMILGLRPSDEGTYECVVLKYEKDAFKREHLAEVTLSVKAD
B = variant CD80 IgV-Fc (inert) H18F/A26N/E35D/M47V/V68M/A71G/D90K (Fc fusion) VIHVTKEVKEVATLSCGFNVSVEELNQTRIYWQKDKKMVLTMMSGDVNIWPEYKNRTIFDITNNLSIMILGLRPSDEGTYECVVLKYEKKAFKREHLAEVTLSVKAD
Problem: Decide: A or B , by lowest recorded Fold change to WT CD80. # reply format: chosen label
Result: B
